Values were extracted from paper PMC8812735.

The following compounds are listed with their measured IC50 values.
# experimental-target: Pancreatic lipase (PL) (Sus scrofa, UniProt P00591)
# Construct: purchased Sigma Aldrich type II, Lot.SLBN9099V
# Sequence (P00591 1-450): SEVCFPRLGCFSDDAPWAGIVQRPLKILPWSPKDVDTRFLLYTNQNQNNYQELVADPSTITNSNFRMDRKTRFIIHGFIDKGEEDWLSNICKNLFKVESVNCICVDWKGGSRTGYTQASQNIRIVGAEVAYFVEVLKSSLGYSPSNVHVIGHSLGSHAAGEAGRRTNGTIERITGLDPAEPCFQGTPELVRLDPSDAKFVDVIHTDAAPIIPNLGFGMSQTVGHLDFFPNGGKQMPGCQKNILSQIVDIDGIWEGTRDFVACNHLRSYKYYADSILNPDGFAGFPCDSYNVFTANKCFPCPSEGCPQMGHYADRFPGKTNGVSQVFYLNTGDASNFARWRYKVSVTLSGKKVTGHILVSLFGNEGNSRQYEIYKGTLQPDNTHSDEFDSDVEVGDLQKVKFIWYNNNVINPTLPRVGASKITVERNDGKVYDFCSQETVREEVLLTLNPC
# assay-name: Inhibition of PL-mediated 4-MUO hydrolysis
# Format: biochemical
# details: 4-MUO substrate, mean ± SD (n = 3)

compound	IC50
CC(C)=CCC[C@](C)(O[C@@H]1O[C@H](CO)[C@@H](O)[C@H](O)[C@H]1O)[C@H]1CC[C@]2(C)[C@@H]1[C@H](O)C[C@@H]1[C@@]3(C)CC[C@H](O)C(C)(C)[C@@H]3[C@@H](O[C@@H]3O[C@H](CO)[C@@H](O)[C@H](O)[C@H]3O[C@@H]3OC[C@@H](O)[C@H](O)[C@H]3O)C[C@]12C [Compound 27]	> 100 µM
CC(=O)OC1CCC2(C)C(CCC3(C)C2CC=C2C4CC(C)(C)CCC4(C(N)=O)CCC23C)C1(C)C (stereo not shown) [Compound 32]	7.02 µM
CC1CCC2(C(=O)O)CCC3(C)C(=CCC4C5(C)CCC(=O)C(C)(C)C5CCC43C)C2C1C (stereo not shown) [Compound 40]	6.94 µM

// below: IC50 requested for another compound
For CC1(C)CC[C@]2(C(=O)O)CC[C@]3(C)C(=CC[C@@H]4[C@@]5(C)CC[C@H](O)C(C)(C)[C@@H]5CC[C@]43C)[C@@H]2C1 [Compound 1, oleanolic acid] the compound record lists IC50 as 8.63 µM

====

# IC50 per record follows
# experimental-target: Pancreatic lipase (PL) (Sus scrofa)
# Construct: purchased Sigma Aldrich type II, Lot.SLBN9099V
# assay-name: Inhibition of PL-mediated 4-MUO hydrolysis
# Type: biochemical
# details: 4-MUO substrate, mean ± SD (n = 3)

Field: example entries. Status: answers known.
compound	IC50
CC(C)=CCC[C@](C)(O[C@@H]1O[C@H](CO)[C@@H](O)[C@H](O)[C@H]1O)[C@H]1CC[C@]2(C)[C@@H]1[C@H](O)C[C@@H]1[C@@]3(C)CC[C@H](O)C(C)(C)[C@@H]3[C@@H](O[C@@H]3O[C@H](CO)[C@@H](O)[C@H](O)[C@H]3O)C[C@]12C	> 100 µM
CC(C)=CCCC(C)(OC1OC(CO)C(O)C(O)C1O)C1CCC2(C)C1C(O)CC1C3(C)CCC(O)C(C)(C)C3C(OC3OC(CO)C(O)C(O)C3OC3OC(CO)C(O)C(O)C3O)CC12C (stereo not shown)	29.7 µM
CC1(C)CC[C@]2(C(=O)O[C@@H]3O[C@H](CO)[C@@H](O)[C@H](O)[C@H]3O)CC[C@]3(C)C(=CC[C@@H]4[C@@]5(C)CC[C@H](O[C@@H]6O[C@H](C(=O)O)[C@@H](O)[C@H](O)[C@H]6O[C@@H]6O[C@H](CO)[C@@H](O)[C@H](O)[C@H]6O)C(C)(C)[C@@H]5CC[C@]43C)[C@@H]2C1	> 100 µM

Note to self: IC50 recorded for CC(C)=CCC[C@](C)(O[C@@H]1O[C@H](CO)[C@@H](O)[C@H](O)[C@H]1O)[C@H]1CC[C@]2(C)[C@@H]1[C@H](O)C[C@@H]1[C@@]3(C)CC[C@H](O)C(C)(C)[C@@H]3[C@@H](O)C[C@]12C was > 100 µM

====

Recorded measurements of IC50, one per entry
# experimental-target: hCES1A (Homo sapiens, UniProt P23141)
# Construct: tissue Bioreclamation IVT lot No. X008067; host or cells: pooled human liver microsomes from 50 donors
# Sequence (P23141 18-567): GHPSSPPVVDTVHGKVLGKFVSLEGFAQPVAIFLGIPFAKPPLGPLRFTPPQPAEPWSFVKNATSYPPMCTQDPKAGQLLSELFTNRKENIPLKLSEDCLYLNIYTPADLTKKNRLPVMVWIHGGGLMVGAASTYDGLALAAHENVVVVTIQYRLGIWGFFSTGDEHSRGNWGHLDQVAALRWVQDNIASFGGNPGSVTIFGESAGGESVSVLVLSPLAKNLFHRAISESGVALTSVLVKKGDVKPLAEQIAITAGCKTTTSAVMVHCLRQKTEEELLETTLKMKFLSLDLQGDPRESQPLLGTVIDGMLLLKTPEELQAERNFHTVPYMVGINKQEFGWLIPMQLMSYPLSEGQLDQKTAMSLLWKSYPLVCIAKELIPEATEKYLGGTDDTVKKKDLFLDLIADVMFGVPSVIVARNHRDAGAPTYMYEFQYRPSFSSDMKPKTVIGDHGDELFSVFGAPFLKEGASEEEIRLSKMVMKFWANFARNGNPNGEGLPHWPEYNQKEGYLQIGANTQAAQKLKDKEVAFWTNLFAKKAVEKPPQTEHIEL
# assay-name: Inhibition of hCES1A-mediated NLMe hydrolysis in human liver microsomes
# Type: biochemical
# details: NLMe substrate, HLM, mean ± SD (n = 3); read-out: IC50 (µM) hCES1A
State just the number; it will be interpreted in µM.

Consider the following illustrative entries.
> print(dat)
                                   compound  endpoint.unit  observed.measurement
1  CCCC(=O)OC1CCC2(C)C(CCC3(C)C2CC=C2C4CC(C)(C)CCC4(C(=O)O)CCC23C)C1(C)C (stereo not drawn)             µM                  0.24
2  CC(=O)OC1CCC2(C)C(CCC3(C)C2CC=C2C4CC(C)(C)CCC4(C(N)=O)CCC23C)C1(C)C (stereo not drawn)             µM                  0.11
3  O=[N+]([O-])c1ccc(OP(=O)(O)Oc2ccc([N+](=O)[O-])cc2)cc1 [Compound 29, Bis-p-nitrophenyl phosphate, reference compound]             µM                  0.36

Lab note: measured IC50 of COC(=O)C12CCC(C)(C)CC1C1=CCC3C4(C)CCC(O)C(C)(C)C4CCC3(C)C1(C)CC2 (stereo not drawn) was 0.856

IC50 for CC1(C)CCC2(C(=O)O)CCC3(C)C(=CCC4C5(C)CCC(OC(=O)CCC(=O)O)C(C)(C)C5CCC43C)C2C1 (stereo not drawn) is 0.043

Input CC1(C)CCC2(C(N)=O)CCC3(C)C(=CCC4C5(C)CCC(O)C(C)(C)C5CCC43C)C2C1 (stereo not drawn) . Output IC50: 0.48

Looking up CC1CCC2(C(=O)O)CCC3(C)C(=CCC4C5(C)CCC(=O)C(C)(C)C5CCC43C)C2C1C (stereo not drawn) , I see its IC50 listed as 0.93

According to the records, this compound CC1(C)CC[C@]2(C(=O)O)CC[C@]3(C)C(=CC[C@@H]4[C@@]5(C)CC[C@H](O)C(C)(C)[C@@H]5CC[C@]43C)[C@@H]2C1 displays IC50 of 0.04

Summary for this compound, CC1(C)CCC2(C(=O)O)CCC3(C)C(=CCC4C5(C)C=C(O)C(=O)C(C)(C)C5CCC43C)C2C1 (stereo not drawn) : IC50 is 0.055

Record summary for CCCCCCCCCCC[C@@H](C[C@@H]1OC(=O)[C@H]1CCCCCC)OC(=O)[C@H](CC(C)C)NC=O [Compound 28, Orlistat, reference compound] : reported IC50 = 0.035

The value of IC50 measured for the compound CC1(C)CCC2(CO)CCC3(C)C(=CCC4C5(C)CCC(O)C(C)(C)C5CCC43C)C2C1 (stereo not drawn) turned out to be 4.11

# IC50 (compound: CCCCCC(=O)OC1CCC2(C)C(CCC3(C)C2CC=C2C4CC(C)(C)CCC4(C(=O)O)CCC23C)C1(C)C (stereo not drawn) ) is 1.82

Recorded result, CC1(C)CC[C@]2(C(=O)O)CC[C@]3(C)C(=CC[C@@H]4[C@@]5(C)CC[C@H](O)[C@@](C)(CO)[C@@H]5CC[C@]43C)[C@@H]2C1 , IC50: 0.04

====

# experimental-target: Pancreatic lipase (PL) (Sus scrofa)
# Construct: purchased Sigma Aldrich type II, Lot.SLBN9099V
# assay-name: Inhibition of PL-mediated 4-MUO hydrolysis
# Assay type: biochemical
# details: 4-MUO substrate, Lineweaver–Burk second plot
experimental-readout: Ki (µM)
// note: answer is a bare numeric in µM

> print(dat)
                                   compound  experimental.readout  observed.measurement
1  CC(=O)OC1CCC2(C)C(CCC3(C)C2CC=C2C4C(C)C(C)CCC4(C(=O)O)CCC23C)C1(C)C (centres unmarked)                    Ki                  0.58

Looking up CC1(C)CCC2(C(=O)O)CCC3(C)C(=CCC4C5(C)C=C(O)C(=O)C(C)(C)C5CCC43C)C2C1 (centres unmarked) , I see its Ki listed as 1.45

====

# experimental-target: hCES2A (Homo sapiens, UniProt O00748)
# Sequence (O00748 27-559): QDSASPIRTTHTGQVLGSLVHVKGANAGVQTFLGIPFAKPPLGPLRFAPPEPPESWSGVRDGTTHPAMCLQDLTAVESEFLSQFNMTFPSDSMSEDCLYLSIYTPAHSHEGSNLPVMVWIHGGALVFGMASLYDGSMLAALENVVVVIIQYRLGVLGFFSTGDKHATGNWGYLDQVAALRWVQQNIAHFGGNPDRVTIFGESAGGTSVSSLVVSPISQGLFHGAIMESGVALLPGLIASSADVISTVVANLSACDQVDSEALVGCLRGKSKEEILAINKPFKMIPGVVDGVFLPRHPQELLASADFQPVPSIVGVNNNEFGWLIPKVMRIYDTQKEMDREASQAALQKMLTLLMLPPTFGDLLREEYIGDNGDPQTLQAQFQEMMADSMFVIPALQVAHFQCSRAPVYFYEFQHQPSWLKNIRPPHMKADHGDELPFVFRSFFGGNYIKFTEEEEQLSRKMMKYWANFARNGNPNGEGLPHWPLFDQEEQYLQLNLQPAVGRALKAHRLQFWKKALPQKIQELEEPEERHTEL
# assay-name: Inhibition of hCES2A-mediated FD hydrolysis
# Type: biochemical
experimental-readout: pIC50
Scale: negative log10 of molar concentration, which is what pIC50 denotes.

For record C[C@H]1[C@H](C)CC[C@]2(C(=O)O)CC[C@]3(C)C(=CC[C@@H]4[C@@]5(C)C[C@@H](O)[C@H](O)[C@@](C)(CO)[C@@H]5CC[C@]43C)[C@H]12 [Compound 7, asiatic acid] the listed pIC50 is 4.19
